biological target: Glutamate NMDA receptor; Grin1/Grin2a (Rattus norvegicus, UniProt P35439+Q00959); experiment: Negative allosteric modulation of rat GluN1/GluN2A expressed in Xenopus laevis oocytes assessed as inhibition of L-glutamate/glycine-induced current response at holding potential -60 mV by two-electrode voltage clamp method
pIC50: −log10 of the molar value.
Hi, to clarify the labels: fulfilled covers pIC50 from 5 upward, not fulfilled covers anything below 5.

Decide: is the reported value of pIC50 for O=C(O)c1cc2cc(/C=C/c3ccccc3[N+](=O)[O-])ccc2cc1O equal to or greater than 5?
fulfilled

Decide: is the reported value of pIC50 for O=C(O)c1cc2cc(/C=C/c3ccc([N+](=O)[O-])cc3)ccc2cc1O equal to or greater than 5?
fulfilled

Decide: is the reported value of pIC50 for O=C(O)c1cc2cc(/C=C/c3ccccc3)ccc2cc1O equal to or greater than 5?
not fulfilled

* * *

target: Glutamate NMDA receptor; Grin1/Grin2a (Rattus norvegicus) (UniProt P35439+Q00959); assay: Negative allosteric modulation of rat GluN1/GluN2A expressed in Xenopus laevis oocytes assessed as inhibition of L-glutamate/glycine-induced current response at holding potential -60 mV by two-electrode voltage clamp method relative to untreated control; type: cell-based; design: concentration or dose not given beside the values
Hi, to clarify the labels: true (1) covers Activity from 50% upward, false (0) covers anything below 50%.

Decide: is the reported value of Activity for O=C(O)c1cc2cc(/C=C/c3ccccc3)ccc2cc1O equal to or greater than 50%?
true (1)

Decide: is the reported value of Activity for O=C(O)c1cc2cc(-c3ccccc3)ccc2cc1O equal to or greater than 50%?
true (1)

Decide: is the reported value of Activity for O=C(O)c1cc2cc(/C=C/c3ccc([N+](=O)[O-])cc3)ccc2cc1O equal to or greater than 50%?
true (1)

Decide: is the reported value of Activity for O=C(O)c1cc2cc(/C=C/c3ccccc3[N+](=O)[O-])ccc2cc1O equal to or greater than 50%?
false (0)

* * *

target: Glutamate receptor ionotropic, NMDA 2C (Rattus norvegicus); test: Allosteric modulation of rat GluN2C expressed in Xenopus laevis oocytes assessed as L-glutamate/glycine-induced current response at 100 uM at holding potential -60 mV by two-electrode voltage clamp method relative to L-glutamate/glycine; assay type: cell-based
recorded.metric: Activity (%)
Give just the number in %; leave the unit off.

Determine its reported Activity: O=C(O)c1cc2cc(/C=C/c3ccccc3[N+](=O)[O-])ccc2cc1O
35.1

Determine its reported Activity: CCC/C=C/c1ccc2cc(C(=O)O)ccc2c1
82

Determine its reported Activity: O=C(O)c1cc2cc(/C=C/c3ccccc3)ccc2cc1O
21.7

Determine its reported Activity: CC(C)COCc1ccc2cc(C(=O)O)ccc2c1
83

Determine its reported Activity: CC(C)CC(Cc1ccc2cc(C(=O)O)ccc2c1)C(=O)O (racemic)
118

Determine its reported Activity: O=C(O)c1cc2cc(CCc3ccccc3)ccc2cc1O
46.8

Determine its reported Activity: CC(C)CSCc1ccc2cc(C(=O)O)ccc2c1
105

Determine its reported Activity: CC(C)CCCc1ccc2cc(C(=O)O)c(C(=O)O)cc2c1
47

Determine its reported Activity: CC(C)CCCc1ccc2cc(C(=O)O)ccc2c1
192

Determine its reported Activity: CCCCCc1ccc2cc(CO)ccc2c1
76

Determine its reported Activity: CC(C)CCCc1ccc2cc(O)c(C(=O)O)cc2c1
113

Determine its reported Activity: O=C(O)c1cc2cc(/C=C/c3ccccc3C(=O)O)ccc2cc1O
83.7

* * *

Task for the reader: assign each of the following molecules its reported Activity.
biological target: UniProtKB Q00959; assay: Allosteric modulation of rat GluN2A expressed in Xenopus laevis oocytes assessed as L-glutamate/glycine-induced current response at 100 uM at holding potential -60 mV by two-electrode voltage clamp method relative to L-glutamate/glycine; assay type: cell-based
# answer = value followed by unit

Determine its reported Activity: CCC/C=C/c1ccc2cc(C(=O)O)ccc2c1
51%

Determine its reported Activity: O=C(O)c1ccc(/C=C/c2ccc3cc(O)c(C(=O)O)cc3c2)cc1
89.7%

Determine its reported Activity: CCCCCc1ccc2cc(CC(=O)O)ccc2c1
67%

Determine its reported Activity: CC(C)CC#Cc1ccc2cc(C(=O)O)ccc2c1
104%

Determine its reported Activity: CC(C)CCC(=O)c1ccc2cc(C(=O)O)ccc2c1
128%

Determine its reported Activity: O=C(O)c1cccc(/C=C/c2ccc3cc(O)c(C(=O)O)cc3c2)c1
90.3%

Determine its reported Activity: COc1ccc(/C=C/c2ccc3cc(O)c(C(=O)O)cc3c2)cc1
42.7%

Determine its reported Activity: CC(C)CCCc1ccc2ccc(C(=O)O)cc2c1
123%

Determine its reported Activity: CCCCOc1ccc2cc(C(=O)O)ccc2c1
55%

* * *

Task for the reader: assign each of the following compounds its reported pEC50.
target: Glutamate NMDA receptor; Grin1/Grin2a (Rattus norvegicus, UniProt P35439+Q00959); assay: Positive allosteric modulation of rat GluN1/GluN2A expressed in Xenopus laevis oocytes assessed as potentiation of L-glutamate/glycine-induced current response at holding potential -60 mV by two-electrode voltage clamp method
Please report pEC50 as the negative decimal logarithm of the molar concentration, giving only the number.

State measured pEC50 of the compound C=C(CCC(C)C)c1ccc2cc(C(=O)O)ccc2c1 with Glutamate NMDA receptor; Grin1/Grin2a (Rattus norvegicus, UniProt P35439+Q00959).
3.94

State measured pEC50 of the compound O=C(O)c1ccc2cc(CCCC3CCCC3)ccc2c1 with Glutamate NMDA receptor; Grin1/Grin2a (Rattus norvegicus, UniProt P35439+Q00959).
5.12

State measured pEC50 of the compound CC(C)CCC(C)c1ccc2cc(C(=O)O)ccc2c1 (racemic) with Glutamate NMDA receptor; Grin1/Grin2a (Rattus norvegicus, UniProt P35439+Q00959).
4.40

State measured pEC50 of the compound CC(C)CCCc1ccc2cc(C(=O)O)ccc2c1 with Glutamate NMDA receptor; Grin1/Grin2a (Rattus norvegicus, UniProt P35439+Q00959).
4.55

State measured pEC50 of the compound CCCCCc1ccc2cc(C(=O)O)ccc2c1 with Glutamate NMDA receptor; Grin1/Grin2a (Rattus norvegicus, UniProt P35439+Q00959).
4.57

* * *

target: Ionotropic glutamate receptor NMDA 1/2D (Rattus norvegicus) (UniProt P35439+Q62645); assay: Negative allosteric modulation of rat GluN1/GluN2D expressed in Xenopus laevis oocytes assessed as inhibition of L-glutamate/glycine-induced current response at holding potential -60 mV by two-electrode voltage clamp method relative to untreated control; type: cell-based; design: concentration or dose not given beside the values
Task for the reader: assign each of the following compounds its reported Activity.
Give just the number in %; leave the unit off.

Determine its reported Activity: O=C(O)c1cc2cc(-c3ccccc3)ccc2cc1O
98.6

Determine its reported Activity: O=C(O)c1cc2cc(/C=C/c3cccc([N+](=O)[O-])c3)ccc2cc1O
70

Determine its reported Activity: O=C(O)c1cc2cc(/C=C/c3ccc([N+](=O)[O-])cc3)ccc2cc1O
72.3

Determine its reported Activity: O=C(O)c1cc2cc(/C=C/c3ccccc3[N+](=O)[O-])ccc2cc1O
79.7

Determine its reported Activity: O=C(O)c1cc2cc(/C=C/c3ccccc3)ccc2cc1O
93.6

* * *

target: Glutamate receptor ionotropic, NMDA 2A (Rattus norvegicus) (UniProt Q00959); experiment: Allosteric modulation of rat GluN2A expressed in Xenopus laevis oocytes assessed as L-glutamate/glycine-induced current response at 100 uM at holding potential -60 mV by two-electrode voltage clamp method relative to L-glutamate/glycine; format: cell-based
Task for the reader: assign each of the following compounds its reported Activity.
# answer = value followed by unit

State measured Activity of the compound O=C(O)c1cc2cc(-c3ccccc3)ccc2cc1O with Glutamate receptor ionotropic, NMDA 2A (Rattus norvegicus) (UniProt Q00959).
28.4%

State measured Activity of the compound CC(C/C=C/c1ccc2cc(C(=O)O)ccc2c1)C(=O)O (racemic) with Glutamate receptor ionotropic, NMDA 2A (Rattus norvegicus) (UniProt Q00959).
107%

State measured Activity of the compound O=C(O)c1cc2cc(/C=C/c3ccc([N+](=O)[O-])cc3)ccc2cc1O with Glutamate receptor ionotropic, NMDA 2A (Rattus norvegicus) (UniProt Q00959).
47.4%

State measured Activity of the compound O=C(O)c1cc2cc(/C=C/c3ccccc3)ccc2oc1=O with Glutamate receptor ionotropic, NMDA 2A (Rattus norvegicus) (UniProt Q00959).
95.1%

State measured Activity of the compound O=C(O)c1cc2cc(/C=C/c3ccccc3[N+](=O)[O-])ccc2cc1O with Glutamate receptor ionotropic, NMDA 2A (Rattus norvegicus) (UniProt Q00959).
80.5%

State measured Activity of the compound CC(C)CCC(C)c1ccc2cc(C(=O)O)ccc2c1 (racemic) with Glutamate receptor ionotropic, NMDA 2A (Rattus norvegicus) (UniProt Q00959).
281%

State measured Activity of the compound O=C(O)c1ccc(CCc2ccc3cc(O)c(C(=O)O)cc3c2)cc1 with Glutamate receptor ionotropic, NMDA 2A (Rattus norvegicus) (UniProt Q00959).
102%

State measured Activity of the compound CC(C)C/C=C/c1ccc2cc(C(=O)O)ccc2c1 with Glutamate receptor ionotropic, NMDA 2A (Rattus norvegicus) (UniProt Q00959).
135%

State measured Activity of the compound CC(C)CCCc1ccc2cc(C(=O)O)c(C(=O)O)cc2c1 with Glutamate receptor ionotropic, NMDA 2A (Rattus norvegicus) (UniProt Q00959).
92%

State measured Activity of the compound CC(C)COCc1ccc2cc(C(=O)O)ccc2c1 with Glutamate receptor ionotropic, NMDA 2A (Rattus norvegicus) (UniProt Q00959).
83%

State measured Activity of the compound O=C(O)c1cc2cc(CCc3ccccc3)ccc2cc1O with Glutamate receptor ionotropic, NMDA 2A (Rattus norvegicus) (UniProt Q00959).
71.4%

State measured Activity of the compound CCCCCc1ccc2cc(CO)ccc2c1 with Glutamate receptor ionotropic, NMDA 2A (Rattus norvegicus) (UniProt Q00959).
89%
